Tested on: isolated virion HIV-1LAI
Test: infectivity of the isolated virion after treatment with inhibitors (HT4LacZ cells)
Assay type: cell-based
Conditions: isolated virion
Experimental: H9 cells chronically infected with HIV-1LAI (10^8 /ml) were cocultivated with MT4 cells (10^8 /ml) for 48 hours in an RMPI medium supplemented by 10% of calf foetal serum (CFS). The cells were then removed by centrifugation and then the supernatant liquid was filtered (0.45 μm) to remove residual cells and cell debris. […]
assay.readout: activity on the isolated virion (in words)

| compound | tgt | observed |
| --- | --- | --- |
| Nc1ccn([C@@H]2CS[C@H](CO)O2)c(=O)n1 | isolated virion HIV-1LAI | totally inactive |
| Cc1ccnc2c1NC(=O)c1cccnc1N2C1CC1 | isolated virion HIV-1LAI | totally inactive |
| Cc1c(Sc2ccccc2)n(COCCO)c(=O)[nH]c1=O | isolated virion HIV-1LAI | totally inactive |
| Cc1cn([C@H]2C=C[C@@H](CO)O2)c(=O)[nH]c1=O | isolated virion HIV-1LAI | totally inactive |
| O=c1[nH]cnc2c1ncn2[C@H]1CC[C@@H](CO)O1 | isolated virion HIV-1LAI | totally inactive |
| Cc1cn([C@H]2C[C@H](N=[N+]=[N-])[C@@H](CO)O2)c(=O)[nH]c1=O [AZT, reference compound] | isolated virion HIV-1LAI | totally inactive |
